- ASSAYED_TARGET: PDE1C (Homo sapiens (Human))
- Sequence (Q14123 whole entry): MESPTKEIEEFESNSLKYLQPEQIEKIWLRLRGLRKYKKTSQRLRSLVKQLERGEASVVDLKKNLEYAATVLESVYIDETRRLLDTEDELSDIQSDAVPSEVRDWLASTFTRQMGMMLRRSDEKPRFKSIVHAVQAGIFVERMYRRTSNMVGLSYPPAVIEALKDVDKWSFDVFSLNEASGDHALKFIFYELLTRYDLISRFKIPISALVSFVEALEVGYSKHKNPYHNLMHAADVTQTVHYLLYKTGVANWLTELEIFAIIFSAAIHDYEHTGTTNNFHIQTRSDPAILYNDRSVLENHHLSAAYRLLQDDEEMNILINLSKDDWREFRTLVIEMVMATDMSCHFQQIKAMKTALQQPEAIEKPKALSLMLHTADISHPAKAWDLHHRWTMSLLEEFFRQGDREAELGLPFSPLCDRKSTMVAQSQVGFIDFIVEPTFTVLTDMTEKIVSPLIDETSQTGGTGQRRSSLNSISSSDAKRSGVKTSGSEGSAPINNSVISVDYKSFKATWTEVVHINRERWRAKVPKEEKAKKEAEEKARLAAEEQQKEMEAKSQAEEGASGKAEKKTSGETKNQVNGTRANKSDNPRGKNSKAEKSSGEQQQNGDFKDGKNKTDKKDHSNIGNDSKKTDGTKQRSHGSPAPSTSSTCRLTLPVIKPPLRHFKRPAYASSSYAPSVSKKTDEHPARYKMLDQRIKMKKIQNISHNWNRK
MEASURED_METRIC: pIC50
Give bare numbers, as −log10 of the molar value.

Check out these entries, answers already filled in.
>>> experimental_value("COc1ccc(Cn2c(C)cn3c(C4(C)CCN(C)CC4)ncc3c2=O)cc1 [Example 73]")
5.61
>>> experimental_value("O=c1c2cnc(C3CCOCC3)n2ccn1CC1CCCCC1 [Example 11]")
7.37
>>> experimental_value("Cc1cn2c([C@H]3CCOC3)ncc2c(=O)n1Cc1cccc(F)c1 (single isomer, unassigned; isomer 2) [31, isomer 2]")
7.51

Value sought for every listed molecule: pIC50.
1. COc1ccc(Cn2c(C)cn3c([C@H](C)c4ccccc4)ncc3c2=O)cc1 [Example 72]
2. COCC(C)(C)c1ncc2c(=O)n(Cc3ccc(OC)cc3)c(C)cn12 [Example 76]
3. Cc1cn2c([C@@H]3C[C@H]3C)ncc2c(=O)n1Cc1cccc(F)c1 (single isomer, unassigned; isomer 2) [35, isomer 2]
4. O=c1c2cnc(C3CC3)n2ccn1CC1CCCC1 [Example 7]

1: 7.37; 2: 6.90; 3: 7.39; 4: 6.64

Kindly give each listed record's pIC50.
1. Cc1cn2c([C@@H]3CCCOC3)ncc2c(=O)n1Cc1cccc(F)c1 (single isomer, unassigned; isomer 1) [100, isomer 1]
2. CCc1ccccc1Cn1c(C)cn2c(C3CCOCC3)ncc2c1=O [Example 49]
3. Cc1cn2c([C@H]3C[C@H]3C)ncc2c(=O)n1Cc1cccc(F)c1 (single isomer, unassigned; isomer 4) [35, isomer 4]
4. Cc1cn2c(C3CCOCC3)ncc2c(=O)n1C[C@H]1CC[C@@H](C)CC1 [66, cis]
5. CO[C@H]1CC[C@@H](Cn2c(C)cn3c(C4CCOCC4)ncc3c2=O)CC1 [Example 67]

1: 7.37; 2: 6.76; 3: 7.07; 4: 8.40; 5: 6.51

Could I get pIC50 for every one of these entries?
1. Cc1cn2c(C3CCOCC3)ncc2c(=O)n1CCC(C)C [Example 62]
2. Cc1cn2c(C3C[C@@H]3F)ncc2c(=O)n1Cc1cccc(F)c1 (single isomer, unassigned; isomer 1) [37, isomer 1]
3. COc1ccc(Cn2c(C)cn3c(C4(C)CNC(=O)C4)ncc3c2=O)cc1 (stereo not drawn) [Example 75]

1. 7.03
2. 6.46
3. 6.44
